Sourced from patent US20200317755A1

# measurement target: E protein of ZIKV strain H/PF/2013 (on infectious virus) (Zika virus)
# experiment: cell-based or functional assay
experimental endpoint: IC50, ZIKV neut (µg/mL)
Write down the numeric answer in µg/mL and omit the unit.

In plain terms, ZKA190 (antibody, V domains shown, also called ZKA190 IgG; ZKA190 mAb) VH: QVQLVESGGGVVQPGRSLRLSCAASGFTFSKYGMHWVRQAPGKGLEWVAVISYEGSNKYYADSVKGRFTISRDNSKNTLYLQMNSLRAEDTAVYYCAKSGTQYYDTTGYEYRGLEYFGYWGQGTLVTVSS VL: EIVLTQSPGTLSLSPGERATLSCRASQSVSSSYLAWYQQKRGQAPRLLIYDASSRATGIPDRFSGSGSGTDFTLTISRLEPEDFAVYYCQQYGRSRWTFGQGTKVEIK has a documented IC50, ZIKV neut of 0.012

In plain terms, ZKA185 (antibody, V domains shown, also called ZKA185 IgG; ZKA185 mAb) VH: EVQLVQSGAEVKKPGESLRISCKGSGYSFTSYWITWVRQMPGKGLEWMAKFDPSDSQTNYSPSFQGHVTISVDKSISTAYLQWSSLKASDTAMYYCARRYCSSSSCYVDNWGQGTLVTIFS VL: SYELTQPPSVSVSPGQTARITCSGDALPNKFAYWYRQKSGQAPVLVIYEDNKRPSGIPERFSGSSSGTMATLTISGAQVEDEADYHCYSTDSSSNPLGVFGGGTKLTVL has a documented IC50, ZIKV neut of 0.013

In plain terms, ZKA230 (antibody, V domains shown, also called ZKA230 mAb; NNB mAb ZKA230) VH: QVQLQESGPGLVKPSETLSLTCAVSGGSISSDYWSWIRQPPGKGLEWIGYIYYSGSTNYNPSLKSRVTISVDTSKNHFSLKLNSVTAADTAVYYCARRRKYDSLWGSFAFDIWGQGTMVTVSS VL: QSVLTQPPSASGTPGQRVTISCSGSSSNIGGNYVYWYQQLPGTAPKLLICINDHRPSGVPDRFSGSKSGTSASLAISGLQSEDEADYYCATWDDSLGGLVFGGGTKLTVL has a documented IC50, ZIKV neut of 0.01

Here's the next entry for you.
In plain terms, ZKA64 (antibody, V domains shown, also called EDIII-specific mAb ZKA64) VH: QVQLVQSGAEVKKPGASVKVSCKASGYTFTGYHIDWVRQARGQGLEWMGRINPNSGGTNYAQKFQGRVTMTRDTSISTAYMQLSRLRSDDSAVYYCARMSSSIWGFDHWGQGTLVTVSS VL: EIVMTQSPATLSVSPGERATLSCRASQSVLINLAWYQQKPGQAPRLLIYGASSRATGIPARFSGSGSGTEFTLTISSLQSEDFAVYYCQQYNDWPPITFGQGTRLEIK has a documented IC50, ZIKV neut of 0.155
